IC50 tested on HIS-AXL 473-End (Homo sapiens (Human)): recorded values
Sequence (P30530 473-894): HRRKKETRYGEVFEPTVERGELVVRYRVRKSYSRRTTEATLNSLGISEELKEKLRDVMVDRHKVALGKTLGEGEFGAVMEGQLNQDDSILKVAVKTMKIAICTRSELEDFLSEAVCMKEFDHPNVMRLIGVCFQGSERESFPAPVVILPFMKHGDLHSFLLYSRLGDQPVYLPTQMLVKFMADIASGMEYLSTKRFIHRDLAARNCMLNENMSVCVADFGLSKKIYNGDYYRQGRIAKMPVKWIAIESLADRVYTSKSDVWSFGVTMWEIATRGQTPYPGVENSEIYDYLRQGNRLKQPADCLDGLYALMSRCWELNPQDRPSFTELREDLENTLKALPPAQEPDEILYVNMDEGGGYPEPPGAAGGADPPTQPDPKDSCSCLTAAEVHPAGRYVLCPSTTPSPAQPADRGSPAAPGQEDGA

{"columns": ["Molecule", "IC50"],
 "data": [
  ["CC(C)n1cc(C(=O)Nc2ccc(Oc3ccnc(Nc4ccc(C(F)(F)F)c(N5CCN(S(=O)(=O)N(C)C)CC5)n4)c3)c(F)c2)c(=O)n(-c2ccc(F)cc2)c1=O", "14700 nM"],
  ["CC(C)n1cc(C(=O)Nc2ccc(Oc3ccnc(Nc4ccc(S(=O)(=O)N5CCN(C)CC5)cn4)c3)c(F)c2)c(=O)n(-c2ccc(F)cc2)c1=O", "3.9 nM"],
  ["CC(C)n1cc(C(=O)Nc2ccc(Oc3ccnc(Nc4ccc(S(=O)(=O)N(C)C)cn4)c3)c(F)c2)c(=O)n(-c2ccc(C(F)(F)F)cc2)c1=O", "100 nM"],
  ["CC(C)n1cc(C(=O)Nc2ccc(Oc3ccnc(Nc4ccc(S(=O)(=O)N(C)C)cn4)c3)c(F)c2)c(=O)n(-c2cccc(C(F)(F)F)c2)c1=O", "90 nM"],
  ["Cc1cc(Nc2cc(Oc3ccc(NC(=O)c4cn(C(C)C)c(=O)n(-c5ccc(F)cc5)c4=O)cc3F)ccn2)ncc1S(=O)(=O)N(C)C", "10 nM"],
  ["CC(C)n1cc(C(=O)Nc2ccc(Oc3ccnc(Nc4ccc(S(=O)(=O)N(C)C)cn4)c3)c(F)c2)c(=O)n(Cc2ccncc2)c1=O", "287 nM"],
  ["CC(C)n1cc(C(=O)Nc2ccc(Oc3ccnc(Nc4ncc(C(F)(F)F)cc4F)c3)c(F)c2)c(=O)n(-c2ccc(F)cc2)c1=O", "55 nM"],
  ["CC(C)n1cc(C(=O)Nc2ccc(Oc3ccnc(Nc4cc(N5CCOCC5)ccn4)c3)c(F)c2)c(=O)n(-c2ccc(F)cc2)c1=O", "8.9 nM"],
  ["CC(C)n1cc(C(=O)Nc2ccc(Oc3ccnc(Nc4ccc(C#N)c(N5CCC(O)(C(F)(F)F)CC5)n4)c3)c(F)c2)c(=O)n(-c2ccc(F)cc2)c1=O", "9.8 nM"],
  ["CC(C)n1cc(C(=O)Nc2ccc(Oc3ccnc(Nc4ccnc(N5CCC(S(C)(=O)=O)CC5)n4)c3)c(F)c2)c(=O)n(-c2ccc(F)cc2)c1=O", "0.6 nM"],
  ["Cc1cnc(Nc2cc(Oc3ccc(NC(=O)c4cn(C(C)C)c(=O)n(-c5ccc(F)cc5)c4=O)cc3F)ccn2)nc1N1CCN(S(C)(=O)=O)CC1", "3.4 nM"],
  ["CN(C)S(=O)(=O)c1ccc(Nc2cc(Oc3ccc(NC(=O)c4cn([C@H]5CCOC5)c(=O)n(-c5ccc(F)cc5)c4=O)cc3F)ccn2)nc1", "6 nM"],
  ["Cc1cnc(Nc2cc(Oc3ccc(NC(=O)c4cn(C(C)C)c(=O)n(-c5ccc(F)cc5)c4=O)cc3F)ccn2)nc1", "7.5 nM"],
  ["CC(C)n1cc(C(=O)Nc2ccc(Oc3ccnc(Nc4ccc(S(C)(=O)=O)cn4)c3)c(F)c2)c(=O)n(-c2ccc(F)cc2)c1=O", "11 nM"],
  ["CC(C)n1cc(C(=O)Nc2ccc(Oc3ccnc(Nc4ccc(S(N)(=O)=O)cn4)c3)c(F)c2)c(=O)n(-c2ccc(F)cc2)c1=O", "1.6 nM"],
  ["CC(C)n1cc(C(=O)Nc2ccc(Oc3ccnc(Nc4cccc(C(F)(F)F)n4)c3)c(F)c2)c(=O)n(-c2ccc(F)cc2)c1=O", "29 nM"],
  ["CC(C)n1cc(C(=O)Nc2ccc(Oc3ccnc(Nc4ccc(S(=O)(=O)NC(C)(C)C)cn4)c3)c(F)c2)c(=O)n(-c2ccc(F)cc2)c1=O", "12 nM"],
  ["CCOc1cnc(Nc2cc(Oc3ccc(NC(=O)c4cn(C(C)C)c(=O)n(-c5ccc(F)cc5)c4=O)cc3F)ccn2)cn1", "7.2 nM"],
  ["CC(C)n1cc(C(=O)Nc2ccc(Oc3ccnc(Nc4ccc(N5CCC(N)C5=O)cn4)c3)c(F)c2)c(=O)n(-c2ccc(F)cc2)c1=O (stereo not drawn)", "2.2 nM"],
  ["CC(C)n1cc(C(=O)Nc2ccc(Oc3ccnc(Nc4ccc(S(=O)(=O)N5CCC5)cn4)c3)c(F)c2)c(=O)n(-c2ccc(F)cc2)c1=O", "4.4 nM"],
  ["CC(C)n1cc(C(=O)Nc2ccc(Oc3ccnc(Nc4ccc(OC(F)(F)F)cn4)c3)c(F)c2)c(=O)n(-c2ccc(F)cc2)c1=O", "53 nM"],
  ["CC(C)n1cc(C(=O)Nc2ccc(Oc3ccnc(Nc4ccc(C#N)c(N5CCC(S(C)(=O)=O)CC5)n4)c3)c(F)c2)c(=O)n(-c2ccc(F)cc2)c1=O", "1.4 nM"],
  ["CC(C)n1cc(C(=O)Nc2ccc(Oc3ccnc(Nc4ccc(S(=O)(=O)N(C)C)c(N5CCN(S(C)(=O)=O)CC5)n4)c3)c(F)c2)c(=O)n(-c2ccc(F)cc2)c1=O", "7.4 nM"],
  ["Cn1cc(C(=O)Nc2ccc(Oc3ccnc(Nc4ccc(S(C)(=O)=O)cn4)c3)c(F)c2)c(=O)n(-c2ccc(F)cc2)c1=O", "3.5 nM"]
]}

Taken from patent US20230339891A1.
